- System: ben-1 mutant (ECA882) C. elegans
- PROTOCOL_NOTES: microbe, parasite or virus in culture
- EXPERIMENTAL_CONTEXT: Caenorhabditis elegans, read-out: C. elegans ben-1(e1880) development/viability
ATTRIBUTE_MEASURED: viability at 31.3 µM (%)
Write the answer as a number in %, unit excluded.

Reference set, count: 8
Clc1ccc(OCCn2cnc3ccccc32)c(Cl)c1 | 64.6
Cc1ccc(SCCCCn2cnc3ccccc32)cc1 | 93.2
Cc1ccccc1OCCCCn1cnc2ccccc21 | 97
Cc1nc2ccccc2n1CCOc1ccccc1Cl | 100
Cc1cccc(OCCn2c(C)nc3ccccc32)c1 | 93.8
Cc1ccc(C(C)C)c(OCC(O)Cn2cnc3ccccc32)c1 (stereo not shown) | 97.2
Cc1nc2ccccc2n1Cc1ccc(Cl)c(Cl)c1 | 99.5
Cc1ccc(CSCc2nc3ccccc3[nH]2)cc1 | 91.7

The compound Cc1nc2ccccc2n1CCOc1ccccc1 , when measured on ben-1 mutant (ECA882) C. elegans, yielded viability at 31.3 µM of 92.9

The compound Nc1nc2ccccc2n1CCOc1ccc(Br)cc1 , when measured on ben-1 mutant (ECA882) C. elegans, yielded viability at 31.3 µM of 85.9

The compound Brc1ccccc1OCCCCn1cnc2ccccc21 , when measured on ben-1 mutant (ECA882) C. elegans, yielded viability at 31.3 µM of 65.5

The compound Cc1ccccc1OCCCn1c(C)nc2ccccc21 , when measured on ben-1 mutant (ECA882) C. elegans, yielded viability at 31.3 µM of 89.5

The compound Nc1nc2ccccc2n1Cc1ccc(Cl)cc1 , when measured on ben-1 mutant (ECA882) C. elegans, yielded viability at 31.3 µM of 76.1

The compound CC(C)Oc1cccc(OCCn2cnc3ccccc32)c1 , when measured on ben-1 mutant (ECA882) C. elegans, yielded viability at 31.3 µM of 95.8

The compound FC(F)(F)c1cccc(OCCCCn2cnc3ccccc32)c1 , when measured on ben-1 mutant (ECA882) C. elegans, yielded viability at 31.3 µM of 75.3

###

- SYSTEM_TESTED: B. taurus (heart) complex I (Bos taurus, UniProt P03887+P17694+P42026)
- Sequence (P03887 whole entry): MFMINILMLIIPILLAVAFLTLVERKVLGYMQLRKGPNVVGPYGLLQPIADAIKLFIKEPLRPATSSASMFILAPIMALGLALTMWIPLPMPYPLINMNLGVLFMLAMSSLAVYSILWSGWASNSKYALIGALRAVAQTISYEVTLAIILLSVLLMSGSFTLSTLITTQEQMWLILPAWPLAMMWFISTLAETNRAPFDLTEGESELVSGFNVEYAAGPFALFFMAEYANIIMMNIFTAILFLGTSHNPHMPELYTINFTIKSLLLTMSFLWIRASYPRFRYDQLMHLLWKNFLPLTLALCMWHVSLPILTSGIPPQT
- Sequence (P17694 34-463): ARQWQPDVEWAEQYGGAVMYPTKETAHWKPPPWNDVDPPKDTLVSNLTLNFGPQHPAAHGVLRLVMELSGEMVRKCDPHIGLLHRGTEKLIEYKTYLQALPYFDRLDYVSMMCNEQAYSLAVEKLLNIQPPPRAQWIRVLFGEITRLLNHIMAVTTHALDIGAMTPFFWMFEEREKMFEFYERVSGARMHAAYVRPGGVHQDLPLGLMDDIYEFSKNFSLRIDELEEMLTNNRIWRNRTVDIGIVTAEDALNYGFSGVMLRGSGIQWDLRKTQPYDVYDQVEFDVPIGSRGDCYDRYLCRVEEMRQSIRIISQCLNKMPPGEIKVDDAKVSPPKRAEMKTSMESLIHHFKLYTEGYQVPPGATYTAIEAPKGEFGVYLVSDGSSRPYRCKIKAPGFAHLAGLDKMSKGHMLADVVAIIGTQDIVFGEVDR
- Sequence (P42026 38-216): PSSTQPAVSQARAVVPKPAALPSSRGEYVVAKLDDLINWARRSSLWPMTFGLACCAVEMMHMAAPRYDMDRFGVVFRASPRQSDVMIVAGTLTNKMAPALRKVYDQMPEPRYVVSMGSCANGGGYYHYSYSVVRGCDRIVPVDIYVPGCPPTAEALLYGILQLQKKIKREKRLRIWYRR
- PROTOCOL_NOTES: biochemical
- Format: biochemical
- EXPERIMENTAL_CONTEXT: Dose 1.5 µM; read-out: B. taurus mitochondrial complex I activity
ATTRIBUTE_MEASURED: activity at 1.5 µM (%)
Write the answer as a number in %, unit excluded.

Cc1cccc(OCCn2c(C)nc3ccccc32)c1 [Compound 6285199] | 67.9

The compound Cc1ccccc1OCCCn1c(C)nc2ccccc21 [Compound 7916923] , when measured on B. taurus (heart) complex I (Bos taurus, UniProt P03887+P17694+P42026), yielded activity at 1.5 µM of 79.4

The compound Nc1nc2ccccc2n1Cc1ccc(Cl)cc1 [Compound 5652765] , when measured on B. taurus (heart) complex I (Bos taurus, UniProt P03887+P17694+P42026), yielded activity at 1.5 µM of 54.3

The compound Brc1ccccc1OCCCCn1cnc2ccccc21 [Compound 7924576] , when measured on B. taurus (heart) complex I (Bos taurus, UniProt P03887+P17694+P42026), yielded activity at 1.5 µM of 44.1

The compound Cc1ccc(OCCn2cnc3ccccc32)cc1 [Compound 5671538] , when measured on B. taurus (heart) complex I (Bos taurus, UniProt P03887+P17694+P42026), yielded activity at 1.5 µM of 84.9

The compound CCCOc1ccc(Cn2cnc3ccccc32)cc1 [Compound 7355741] , when measured on B. taurus (heart) complex I (Bos taurus, UniProt P03887+P17694+P42026), yielded activity at 1.5 µM of 75.9

The compound Clc1ccccc1OCCCCn1cnc2ccccc21 [Compound 7925804] , when measured on B. taurus (heart) complex I (Bos taurus, UniProt P03887+P17694+P42026), yielded activity at 1.5 µM of 54.8

The compound Clc1ccc(SCCCCn2cnc3ccccc32)cc1 [Compound 7925515] , when measured on B. taurus (heart) complex I (Bos taurus, UniProt P03887+P17694+P42026), yielded activity at 1.5 µM of 86.3

The compound FC(F)(F)c1cccc(OCCCCn2cnc3ccccc32)c1 [Compound 7925004] , when measured on B. taurus (heart) complex I (Bos taurus, UniProt P03887+P17694+P42026), yielded activity at 1.5 µM of 81.4

The compound Cc1nc2ccccc2n1CCOc1ccccc1 [Compound 5550112] , when measured on B. taurus (heart) complex I (Bos taurus, UniProt P03887+P17694+P42026), yielded activity at 1.5 µM of 85.2

###

- SYSTEM_TESTED: B. taurus (heart) complex I (Bos taurus, UniProt P03887+P17694+P42026)
- PROTOCOL_NOTES: biochemical
- Format: biochemical
- EXPERIMENTAL_CONTEXT: B. taurus; dose 0.125 µM; Mean of replicates; read-out: Complex I activity, dose-response data
ATTRIBUTE_MEASURED: activity at 0.125 µM (%)
Write the answer as a number in %, unit excluded.

Reference set, count: 3
COc1cc2c(cc1OC)C(C(C)c1ccc(CC(C)C)cc1)=NCC2 (stereo not shown) | 83.6
CC(C)Cc1ccc(C(C)c2nc3ccccc3n2C)cc1 (stereo not shown) | 101
COc1cc2c(cc1OC)C(/C=C/c1ccc(N(C)C)cc1)=NCC2 | 88.5

Read the next record carefully.
activity at 0.125 µM reading for COc1cc2c(cc1OC)C(c1ccc(-c3ccc(Cl)c(Cl)c3)o1)=NCC2 : 106

###

- SYSTEM_TESTED: C. elegans (N2) complex I (NADH:ubiquinone oxidoreductase) (Caenorhabditis elegans, UniProt P24887+Q93873+Q94360)
- Sequence (Q94360 17-199): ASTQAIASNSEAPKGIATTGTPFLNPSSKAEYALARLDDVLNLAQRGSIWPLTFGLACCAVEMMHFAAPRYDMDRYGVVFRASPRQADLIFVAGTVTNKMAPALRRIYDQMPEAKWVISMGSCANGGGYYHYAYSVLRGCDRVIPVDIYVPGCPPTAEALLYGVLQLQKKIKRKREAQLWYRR
- Sequence (P24887 whole entry): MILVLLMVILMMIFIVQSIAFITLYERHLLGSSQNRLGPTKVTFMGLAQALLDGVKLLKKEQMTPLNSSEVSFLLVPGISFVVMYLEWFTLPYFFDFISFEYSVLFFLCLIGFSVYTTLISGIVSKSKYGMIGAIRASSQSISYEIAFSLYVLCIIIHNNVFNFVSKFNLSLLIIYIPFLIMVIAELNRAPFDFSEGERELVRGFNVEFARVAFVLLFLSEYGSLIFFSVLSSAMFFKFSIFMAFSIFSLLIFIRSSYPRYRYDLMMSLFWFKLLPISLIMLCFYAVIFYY
- Sequence (Q93873 31-482): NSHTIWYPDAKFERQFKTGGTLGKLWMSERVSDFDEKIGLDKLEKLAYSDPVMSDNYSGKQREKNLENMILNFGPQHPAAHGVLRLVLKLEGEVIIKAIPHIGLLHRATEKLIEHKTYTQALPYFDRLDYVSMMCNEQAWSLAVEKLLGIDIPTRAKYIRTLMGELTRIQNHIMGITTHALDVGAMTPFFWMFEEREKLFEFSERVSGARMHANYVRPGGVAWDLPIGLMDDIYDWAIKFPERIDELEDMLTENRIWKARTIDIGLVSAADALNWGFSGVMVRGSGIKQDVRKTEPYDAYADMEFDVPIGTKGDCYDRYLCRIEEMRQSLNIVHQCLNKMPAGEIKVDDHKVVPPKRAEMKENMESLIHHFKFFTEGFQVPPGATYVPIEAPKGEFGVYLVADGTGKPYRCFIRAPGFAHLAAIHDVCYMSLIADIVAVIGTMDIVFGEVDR
- PROTOCOL_NOTES: biochemical
- Type: biochemical
- EXPERIMENTAL_CONTEXT: dose 0.013 µM; wild-type C. elegans; mean of replicates; read-out: in vitro complex I activity relative to solvent control, Mean
Documented remaining activity at 0.013 µM across a set of compounds
Don't forget the unit after the number, please.

Reference set, count: 2
CC(C)(C)c1ccc(CCOc2ncnc3ccccc23)cc1 [Fenazaquin, reference compound] | 24%
COC(=O)Nc1nc2ccc(Sc3ccccc3)cc2[nH]1 [fenbendazole, reference compound] | 105%

remaining activity at 0.013 µM reading for C=C(C)[C@H]1Cc2c(ccc3c2O[C@@H]2COc4cc(OC)c(OC)cc4[C@@H]2C3=O)O1 [Rotenone, reference compound] : 90.6%

remaining activity at 0.013 µM reading for Cc1ccccc1OCCCCn1cnc2ccccc21 : 95.4%

remaining activity at 0.013 µM reading for Cc1nc2ccccc2n1Cc1ccc(Cl)cc1 : 89.4%

###

Documented activity at 0.013 µM across a set of molecules
- SYSTEM_TESTED: B. taurus (heart) complex I (Bos taurus, UniProt P03887+P17694+P42026)
- PROTOCOL_NOTES: biochemical
- Assay type: biochemical
- EXPERIMENTAL_CONTEXT: Dose 0.013 µM; read-out: B. taurus mitochondrial complex I activity
Write the answer as a number in %, unit excluded.

Reference set, count: 2
FC(F)(F)c1cccc(OCCCCn2cnc3ccccc32)c1 [Compound 7925004] | 84.7
Cc1ccc(SCCCn2cnc3ccccc32)cc1 [Compound 7926035] | 101

activity at 0.013 µM reading for Nc1nc2ccccc2n1CCOc1ccc(Br)cc1 [Compound 5842535] : 92.4

###

Documented % Activity Complex II across a set of compounds
- SYSTEM_TESTED: C. elegans complex II (succinate dehydrogenase) (Caenorhabditis elegans, UniProt O62215+P41956+Q09545)
- Sequence (P41956 30-182): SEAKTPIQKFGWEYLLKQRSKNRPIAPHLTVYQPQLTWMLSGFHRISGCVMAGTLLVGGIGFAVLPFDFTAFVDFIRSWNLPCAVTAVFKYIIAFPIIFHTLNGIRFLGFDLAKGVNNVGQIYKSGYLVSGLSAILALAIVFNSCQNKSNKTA
- Sequence (Q09545 22-298): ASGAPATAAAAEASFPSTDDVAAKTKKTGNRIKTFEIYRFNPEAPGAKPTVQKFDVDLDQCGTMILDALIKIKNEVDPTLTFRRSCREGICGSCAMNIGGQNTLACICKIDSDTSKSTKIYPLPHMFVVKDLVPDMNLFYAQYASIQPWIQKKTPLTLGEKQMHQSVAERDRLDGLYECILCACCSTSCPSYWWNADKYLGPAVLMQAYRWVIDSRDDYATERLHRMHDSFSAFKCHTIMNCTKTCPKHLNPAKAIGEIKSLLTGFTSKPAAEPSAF
- Sequence (Q09508 32-646, further chain): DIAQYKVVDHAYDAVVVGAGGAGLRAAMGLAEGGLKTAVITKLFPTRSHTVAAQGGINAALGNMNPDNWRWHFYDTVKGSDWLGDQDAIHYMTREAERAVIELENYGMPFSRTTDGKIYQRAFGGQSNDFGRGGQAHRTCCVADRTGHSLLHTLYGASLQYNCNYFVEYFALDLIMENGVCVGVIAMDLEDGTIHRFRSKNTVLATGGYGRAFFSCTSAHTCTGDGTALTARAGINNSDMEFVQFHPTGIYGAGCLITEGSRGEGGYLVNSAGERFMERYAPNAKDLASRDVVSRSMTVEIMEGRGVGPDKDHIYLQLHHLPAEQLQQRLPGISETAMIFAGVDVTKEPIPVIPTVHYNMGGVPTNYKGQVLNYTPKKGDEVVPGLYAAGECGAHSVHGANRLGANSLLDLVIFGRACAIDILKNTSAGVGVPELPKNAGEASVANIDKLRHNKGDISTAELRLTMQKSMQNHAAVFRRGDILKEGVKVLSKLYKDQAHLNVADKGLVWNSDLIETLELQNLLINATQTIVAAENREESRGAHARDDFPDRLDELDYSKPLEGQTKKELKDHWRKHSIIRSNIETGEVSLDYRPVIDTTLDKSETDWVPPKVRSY
- Sequence (O62215 31-145): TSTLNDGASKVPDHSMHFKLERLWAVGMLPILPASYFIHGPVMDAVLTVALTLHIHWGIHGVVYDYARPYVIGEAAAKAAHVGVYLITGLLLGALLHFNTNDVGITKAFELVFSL
- PROTOCOL_NOTES: In vitro complex II activity assay, C. elegans mitochondria
- Format: biochemical
- EXPERIMENTAL_CONTEXT: 100 µM compound, relative to solvent control, mean (SEM)

% Activity Complex II reading for O=C(NCCc1ccc(Cl)cc1)c1ccccc1C(F)(F)F : 24.43 (0.62) %

###

- SYSTEM_TESTED: C. elegans (N2) complex I (NADH:ubiquinone oxidoreductase) (Caenorhabditis elegans, UniProt P24887+Q93873+Q94360)
- PROTOCOL_NOTES: biochemical
- Format: biochemical
- EXPERIMENTAL_CONTEXT: log10 of IC50 in µM; C. elegans mitochondria
The label Satisfied is reserved for Log IC50 C. elegans complex I strictly under 0.8 µM; Not satisfied covers values equal to or above it.

Clc1ccc(OCCn2cnc3ccccc32)c(Cl)c1 | Satisfied
Cc1nc2ccccc2n1CCOc1ccccc1 | Satisfied
Cc1ccc(Cn2c(C(C)C)nc3ccccc32)cc1 | Not satisfied
Nc1nc2ccccc2n1CCCOc1ccccc1 | Not satisfied

[ask] I'd appreciate it if you could check whether Cn1c(Cc2ccc(Cl)cc2)nc2ccccc21 has Log IC50 C. elegans complex I smaller than 0.8 µM.
[reply] Not satisfied
